Items are presented alongside their recorded MIC.
- Tested on: C. tropicalis 98-234
- procedure_details: In vitro MIC susceptibility testing, broth microdilution
- Assay type: cell-based, Candida tropicalis
- conditions_used: Candida tropicalis, 98234; RPMI medium, 33° C., 24 hours; lowest concentration that inhibited visible growth; read-out: MIC C. tropicalis 98-234
Provide only the numeric value, understood in µg/mL.

{"molecule": "C/C=C/C=C/C=C/C(=O)O[C@@H]1C=CC[C@H]2C(=NCCCN3CCOCC3)c3c(O)c4c5c(c3O[C@H]12)OCO[C@@H]5C[C@@H]1C(=O)c2cc(C)[nH]c(=O)c2C(=O)[C@]41O", "unit_tag": "µg/mL", "MIC": 1}
{"molecule": "C/C=C/C=C/C=C/C(=O)O[C@@H]1C=CC[C@H]2/C(=N/Cc3ccccc3)c3c(O)c4c5c(c3O[C@H]12)OCO[C@@H]5C[C@@H]1C(=O)c2cc(C)[nH]c(=O)c2C(=O)[C@]41O", "unit_tag": "µg/mL", "MIC": 4}

Next compound, please.
Reported MIC, compound C/C=C/C=C/C=C/C(=O)O[C@@H]1C=CC[C@H]2C(=NCCN3CCN(C)CC3)c3c(O)c4c5c(c3O[C@H]12)OCO[C@@H]5C[C@@H]1C(=O)c2cc(C)[nH]c(=O)c2C(=O)[C@]41O : ____ 0.05

Each recorded value in this set is attributed to patent US20250090520A1.
